Experiment: viability gain of MRP-1-high H69AR cells under doxorubicin, pilot screen, MRP-1 activator project, CellTiter-Glo, duplicate (AID 807);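 further: compound pretreatment 18-22 h then 72 h combined with doxorubicin; 0% = doxorubicin alone and 100% = vehicle without doxorubicin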
Conditions: H69AR viability with doxorubicin, CellTiter-Glo luminescence; at 10 µM; hits give high values
observation type: viability increase (%)
Dear colleague, please return just the value in %, with no unit written.

Please review the entries below; each comes with its answer.
COc1ccc(-c2nc(C(N)=O)c3[nH]c(=O)n(-c4cccc(C)c4)c3n2)c(OC)c1    -5.41
COc1ccc(NC(=O)CSc2nnc(-c3ccccn3)n2N)cc1    -0.74
CCOC(=O)N1CCN(c2ccc3nnnn3n2)CC1    0.77
CN(C)CCCN1C(=O)c2oc3ccc(F)cc3c(=O)c2C1c1cccnc1 (stereo unspecified)    -1.1
O=C(C1COc2ccccc2O1)N1CCn2c(nc3ccccc32)C1 (stereo unspecified)    -2.64

Next molecule, please.
stdin: State the recorded viability increase for this entry: CCCC(=O)Nc1nc(-c2ccc3c(c2)OCCO3)cs1
stdout: 2.44

----------
Experiment: growth suppression of PTEN-deleted HCT116, pilot screen, cell-based, HCT116 clonal line, CellTiter-Glo (AID 824);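 further: 0% = 20 µM Hyamine control and 100% = vehicle cell control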
Conditions: 60 h, at 10 µM, hits give low values
Records with an inconclusive call do not appear.
observation type: viability (%)
Dear colleague, please return just the value in %, with no unit written.

Please review the entries below; each comes with its answer.
COCCNC(=O)c1cc(-c2ccc(Cl)c(Cl)c2)on1    87.8
Cc1nn(C(=O)c2cccs2)c(N)c1-c1ccccc1    96
COC(=O)c1ccccc1NC(=O)CSc1nccn1C    92.2
O=C(Cn1cc2c(n1)CCCC2)N1CCOCC1    108
C=CCn1c(SCCN2CCCCC2)nc2c1c(=O)[nH]c(=O)n2C    99.8

stdin: State the recorded viability for this entry: CCN1CCN(CC(=O)Nc2cccc(C)c2C)C(=O)C1=O
stdout: 90.9

stdin: Can you handle N=c1oc2ccccc2cc1-c1nc2ccccc2c(=O)[nH]1 next?
stdout: 96.3

stdin: Can you handle COc1ccc(N(CC(=O)NCc2cccs2)S(=O)(=O)c2cccnc2)cc1 next?
stdout: 106

stdin: Can you handle COCCNC(=O)CS(=O)Cc1nc(-c2ccc(Cl)cc2)oc1C (stereo not drawn) next?
stdout: 95.1

stdin: Can you handle O=C(OCn1nnc2ccccc2c1=O)c1cccs1 next?
stdout: 95.9

stdin: Can you handle CCOC(=O)C1CCN(C(=O)CN(c2ccc(OC)cc2)S(=O)(=O)c2c(C)nn(C)c2C)CC1 next?
stdout: 104

stdin: Can you handle Clc1ccc(OCc2nnc(-c3ccccc3Br)o2)c(Cl)c1 next?
stdout: 89.3

stdin: Can you handle Cc1cc(C)cc(N(CC(=O)N2CCn3c2nc2ccccc23)S(=O)(=O)c2c(C)noc2C)c1 next?
stdout: 90.9

stdin: Can you handle Cc1nc(C)c(C(=O)Nc2ccccc2)s1 next?
stdout: 88.3

stdin: Can you handle COC(=O)CSC1=C(C#N)C(c2ccccc2F)CC(=O)N1 (stereo not drawn) next?
stdout: 94.1

stdin: Can you handle CCN1CCN(c2cc(C)c3cc(NC(=O)Cc4ccc(OC)c(OC)c4)ccc3n2)CC1 next?
stdout: 77.2

stdin: Can you handle COc1ccc(CN2CCN(C(=O)c3ccco3)CC2)cc1OCc1ccccc1 next?
stdout: 83.3

stdin: Can you handle CCOC(=O)c1c(C)n(C)c2ccc(OCC(O)CN3CCN(C)CC3)cc12 (stereo not drawn) next?
stdout: 106

stdin: Can you handle O=C(COC(=O)c1ccco1)Nc1ccc(Br)cc1 next?
stdout: 99.3

stdin: Can you handle C=C1CC2C=C(NC(C)=O)CC(C1)C2 (stereo not drawn) next?
stdout: 95.6

stdin: Can you handle Cc1cc(Nc2ccc3c(c2)OCCO3)n2nc(C)nc2n1 next?
stdout: 102

stdin: Can you handle O=C(CSc1nc2ccccc2c(=O)[nH]1)N1CCCCC1 next?
stdout: 84.7

stdin: Can you handle CC1(C)CC(=O)C(C=NCCCN2CCOCC2)=C(O)C1 next?
stdout: 97
